Reported IC50, EGF-stimulated EGFR phosphorylation, A431 cells, In Cell Western values are given for each entry in this list.
# targetSystem: EGFR on the surface of human tumour cells (A431, H292) (human, UniProt P00533 25-1210)
# assayName: cell-based or functional assay
Write down the numeric answer in nM and omit the unit.

Query block: Item I1-GS10-E1 pegylated, His-tagged (designed binder, 40 kDa branched PEG on the Cys of the C-terminal Cys tail) MGVSDVPRDLEVVAATPTSLLISWSARLKVARYYRITYGETGGNSPVQEFTVPKNVYTATISGLKPGVDYTITVYAVTRFRDYQPISINYRTEIDKGSGSGSGSGSGSGSGSGSGSVSDVPRDLEVVAATPTSLLISWVAGAEDYQYYRITYGETGGNSPVQEFTVPHDLVTATISGLKPGVDYTITVYAVTDMMHVEYTEHPISINYRTEIDKPCQHHHHHH : provide IC50, EGF-stimulated EGFR phosphorylation, A431 cells, In Cell Western
Result block: 302

Query block: Item I1-GS10-E3, non-pegylated (designed binder) VSDVPRDLEVVAATPTSLLISWSARLKVARYYRITYGETGGNSPVQEFTVPKNVYTATISGLKPGVDYTITVYAVTRFRDYQPISINYRTEIDKGSGSGSGSGSGSGSGSGSGSVSDVPRDLEVVAATPTSLLISWLPGKLRYQYYRITYGETGGNSPVQEFTVPHDLRTATISGLKPGVDYTITVYAVTNMMHVEYSEYPISINYRTEIDKPSQ : provide IC50, EGF-stimulated EGFR phosphorylation, A431 cells, In Cell Western
Result block: 47

Query block: Item E3 EGFR 10Fn3-based binder, His-tagged monomer (designed binder) MGVSDVPRDLEVVAATPTSLLISWLPGKLRYQYYRITYGETGGNSPVQEFTVPHDLRTATISGLKPGVDYTITVYAVTNMMHVEYSEYPISINYRTEIDKPSQHHHHHH : provide IC50, EGF-stimulated EGFR phosphorylation, A431 cells, In Cell Western
Result block: 14

# ---- query binder ----
Query block: Item I1GS10-E3 (Pegylated) (designed binder, Cys of the C-terminal Cys tail conjugated to 40 kDa branched PEG) I/E tandem 10Fn3 chain: MGVSDVPRDLEVVAATPTSLLISWSARLKVARYYRITYGETGGNSPVQEFTVPKNVYTATISGLKPGVDYTITVYAVTRFRDYQPISINYRTEIDKGSGSGSGSGSGSGSGSGSGSVSDVPRDLEVVAATPTSLLISWLPGKLRYQYYRITYGETGGNSPVQEFTVPHDLRTATISGLKPGVDYTITVYAVTNMMHVEYSEYPISINYRTEIDKPCQHHHHHH : provide IC50, EGF-stimulated EGFR phosphorylation, A431 cells, In Cell Western
Result block: 47
